Tested on: SF-295 CNS
assay.details: NCI-60 one-dose screen, 48 h
test.parameters: 10 µM unless noted
About 83,000 compounds went through this panel and 20% of them were active in at least one assay; those are over-represented in the sample as a whole. Active and inactive are the calls of the source. The calls were made as follows: active = growth percent below 10; inactive = the rest.
Bench note: report the call from T = active, F = inactive

I would be grateful if you could indicate the recorded call for CC(C)(C)C(=O)OCOP(=O)(OCOC(=O)C(C)(C)C)C1CCCN(OC(=O)c2ccccc2)C1=O (stereo not given) .
F

Give the logged outcome of this assay for the following compound: Nc1c(C(=O)c2ccccc2)sc2nc(-c3cccs3)ccc12
T

Kindly provide the recorded test outcome for the following compound: COc1ccc(C2CC(=O)c3c(O)c(OC)c(OC)c(OC)c3O2)cc1O (stereo not given)
T

Hey, what did the test say about CNC(=O)c1cc(Oc2cccc3nc(Nc4ccc(Cl)c(F)c4)ccc23)ccn1 ?
F

Which result was noted for this compound in the test: N#Cc1c(-c2ccc(C(F)(F)F)cc2)c(F)c(NCCC2CCC(O)C2)n2c1nc1ccccc12 (stereo not given)
F

What was the test verdict on COc1cc2nc(Nc3cccc(Cl)c3)nc(N)c2cc1OC ?
F

Please indicate how the test categorized CCc1nc2cc(/C=C/C(=O)NO)ccc2c(=O)n1CCc1ccc(OC)cc1 .
F

Test call, this compound: CCCC(=O)OCC1OC(n2cnc3c(=S)nc[nH]c32)C(OC(=O)CCC)C1OC(=O)CCC (stereo not given)
F

Write down the call the test reported for this compound. Item: O=C(CNc1nc2ccccc2s1)Nc1ccc(-c2nc3ccccc3s2)cc1
F

Please share the test call associated with CCN1CCN(c2cc(C)nc(N(CCCNc3ccnc4cc(Cl)ccc34)Cc3ccc4c(c3)OCO4)n2)CC1 .
T

Please indicate how the test categorized Clc1ccc2c(NCCCNCc3ccc4c(c3)OCO4)ccnc2c1 .
F

In this assay, the call recorded for CC1(O)CCC(Nc2cc(-c3ccc(C(F)(F)F)cc3)c(C#N)c3nc4ccccc4n23)CC1 (stereo not given) was what?
F

Test call, this compound: CC(C)(C)c1ccc(Cn2cc(CSc3nc4ccccc4s3)nn2)cc1
F

Please let me know the test result on file for CC/C=C\C[C@H]1C/C=C2/C(=O)C=C[C@@H]2C/C=C\CCCC(=O)O1 .
T

Could you check what this test reported for C[C@@]1(C(=O)Nc2ccc(F)nc2)CCCN1c1nc(Nc2cc(C3CC3)[nH]n2)c2cccn2n1 ?
T

Lab log entry: CC(C)c1ccc(/C=N/Nc2nc3ccccc3s2)cc1 — outcome as called in the assay?
F

What did the test return for Nc1ccc(S(=O)(=O)O)c2cc(S(=O)(=O)O)cc(O)c12 ?
F

What is the recorded call for this compound in the test? O=c1nc2c(-c3nc4ccccc4s3)n[nH]n2c2sc3c(c12)CCCC3
F

Give the logged outcome of this assay for the following compound: COC(=O)CCCNc1c(-c2c(O)c(O)cc3c(O)c(-c4c(C)cc5c(-c6nc7ccccn7c6NCCCC(=O)OC)c(O)c(O)cc5c4O)c(C)cc23)nc2ccccn12
F

Query: recorded result category for NC(=O)N1N=C(c2ccc(Cl)cc2)CC1c1cn(-c2ccccc2)nc1-c1ccc(Cl)cc1 (stereo not given) in this test
F

====

Test system: 786-0 renal
assay.details: NCI-60 one-dose screen, 48 h (100 = growth as untreated, 0 = no growth, -100 = all killed)
test.parameters: 10 µM unless noted
The panel holds about 83,000 compounds, 20% with a hit somewhere; the sample as a whole holds those more often.
recorded.metric: growth (%)
Use % as the unit, but write only the number.

Identify the measured growth of COc1cc2nccc(Oc3ccc(NC(=O)Nc4cc(C)on4)c(Cl)c3)c2cc1OC for 786-0 renal.
16.1

Lab request: please report growth under test system 786-0 renal for O=C(Nc1cn[nH]c1-c1nc2ccc(CN3CCOCC3)cc2[nH]1)NC1CC1
13.6

So what growth did N#Cc1c(C(F)(F)F)cc(Nc2ccc3nc(NCCN4CCCC4)oc3c2)n2c1nc1ccccc12 get with 786-0 renal?
26.1

What measured growth is associated with Clc1ccc(C(Cn2ccnc2)OCc2ccsc2Cl)c(Cl)c1 (centres undefined) on 786-0 renal?
55.6

Request: growth, test system 786-0 renal, entry COc1ccc(Cc2cc(-c3ccccc3C)n[nH]c2=O)cc1
105

Item COc1ccc2c(CCCC(c3ccccc3)c3ccccc3)c3[n+](cc2c1OC)CCc1cc2c(cc1-3)OCO2 with 786-0 renal - growth?
-18.7

Provide value of growth for this record tested with 786-0 renal: COc1cc(-c2nc(C(=O)NCC(=O)O)nn2-c2ccc(Cl)cc2)cc(OC)c1OC
103

Quick check: growth on 786-0 renal, item CC(=Nc1ccccc1)C1=C(O)C(Cc2ccc(O)cc2)NC1=O (centres undefined) ?
9.29

# value lookup — system 786-0 renal, readout growth, item COc1ccc(C2OC(c3cc(-c4cc5ccccc5o4)nn3-c3ccccc3)=NN2C(C)=O)cc1 (centres undefined)
92.9

Param readout= growth; system= 786-0 renal; entry= CNC(=O)c1cc(Oc2cccc3nc(Nc4ccc(Oc5ccccc5)cc4)ccc23)ccn1 ; returns value.
72.5

// fetch 786-0 renal growth for Cn1ncc(Cl)c1-c1cc(C(=O)N[C@H](CN)Cc2ccc(F)c(F)c2)oc1Cl
-46.7

Request: growth, test system 786-0 renal, entry COc1ccc(COc2cc3oc(=O)c4cc(C(C)O)ccc4c3cc2OC)cc1 (centres undefined)
62.4

Return growth measured with 786-0 renal given this molecule: COc1ccc(Cl)c(Nc2nc3ccccc3nc2NS(=O)(=O)c2cccc(NC(=O)C(C)(C)N)c2)c1
16.7

Report growth for CCc1ccc(/C=C/c2ccc(O)c3ncccc23)[n+](C)c1 tested on 786-0 renal.
89.4

Lab request: please report growth under test system 786-0 renal for COc1cc(OC)c(/C=C/S(=O)(=O)Cc2ccc(OC)c(NCC(=O)O)c2)c(OC)c1
21.9

API: value(readout=growth, system=786-0 renal) for record CC(=O)C1CC(C)CCC1C(C)C (centres undefined)
105

Any idea what growth came out for CC(C)(C)c1cnc(CSc2cnc(NC(=O)C3CCNCC3)s2)o1 on 786-0 renal?
12

Provide value of growth for this record tested with 786-0 renal: COc1ccc(-c2cnc(-c3ccc(Cl)cc3)[nH]2)cc1OC
100

Which growth is reported with 786-0 renal for this entry: COC(=O)[C@H](Cc1ccc(O)cc1)NC(=O)[C@@H](OC)[C@@H]1Cc2cc3cc(OC4CC(OC5CC(O)C(O)C(C)O5)C(O)C(C)O4)c(C)c(O)c3c(O)c2C(=O)[C@H]1OC1CC(OC2CC(OC3CC(C)(O)C(O)C(C)O3)C(O)C(C)O2)C(O)C(C)O1 (some centres undefined) ?
1.98
